- experimental.target: PKCd (Homo sapiens (Human))
- Sequence (Q05655 whole entry, species assumed): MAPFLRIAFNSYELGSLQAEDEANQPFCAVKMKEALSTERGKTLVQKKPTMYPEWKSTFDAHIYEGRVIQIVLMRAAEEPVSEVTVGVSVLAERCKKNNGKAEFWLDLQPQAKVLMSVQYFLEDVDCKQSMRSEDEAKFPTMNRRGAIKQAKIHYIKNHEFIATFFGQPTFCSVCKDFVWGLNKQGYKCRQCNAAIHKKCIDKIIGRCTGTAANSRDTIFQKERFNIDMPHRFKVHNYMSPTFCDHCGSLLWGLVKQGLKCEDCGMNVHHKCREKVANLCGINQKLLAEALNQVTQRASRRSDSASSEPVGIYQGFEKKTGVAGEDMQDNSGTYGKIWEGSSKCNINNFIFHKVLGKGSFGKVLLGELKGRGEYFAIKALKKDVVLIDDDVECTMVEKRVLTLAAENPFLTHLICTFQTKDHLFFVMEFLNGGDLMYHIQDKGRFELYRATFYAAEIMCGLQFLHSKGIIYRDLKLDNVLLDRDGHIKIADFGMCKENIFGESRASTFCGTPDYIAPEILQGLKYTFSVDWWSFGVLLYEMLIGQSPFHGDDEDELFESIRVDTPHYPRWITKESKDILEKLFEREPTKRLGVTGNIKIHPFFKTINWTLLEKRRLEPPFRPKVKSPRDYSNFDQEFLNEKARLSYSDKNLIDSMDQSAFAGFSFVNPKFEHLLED
- test.details: Kinase assay PKCd
- Assay type: biochemical
- condition.context: HCl salt
Would you mind telling me the reported IC50 of each entry?
Your answer should be a plain number; it is taken to be in nM.

Kindly state the measured IC50 obtained for C[C@@H]1C[C@H]2[C@@H]3CCC4=CC(=O)C=C[C@]4(C)[C@@]3(F)[C@@H](O)C[C@]2(C)[C@@]1(O)C(=O)COC(=O)C1CC1C(=O)OCc1ccc([C@@H](CN)C(=O)Nc2ccc3cnccc3c2)cc1 (stereo partly drawn) [Example 27] with PKCd (Homo sapiens (Human)).
509

Form entry - test system: PKCd (Homo sapiens (Human)); read-out: IC50; compound: CC1(C)O[C@@H]2C[C@H]3[C@@H]4C[C@H](F)C5=CC(=O)C=C[C@]5(C)[C@@]4(F)[C@@H](O)C[C@]3(C)[C@]2(C(=O)COC(=O)CCC(=O)OCc2ccc([C@@H](CN)C(=O)Nc3ccc4cnccc4c3)cc2)O1 [Example 40]
152

Param readout = IC50; param system = PKCd (Homo sapiens (Human)); param query = CC1(C)O[C@@H]2C[C@H]3[C@@H]4CCC5=CC(=O)C=C[C@]5(C)[C@@]4(F)[C@@H](O)C[C@]3(C)[C@]2(C(=O)COC(=O)CCC(=O)OCc2ccc([C@@H](CN)C(=O)Nc3ccc4cnccc4c3)cc2)O1 [Example 33] ; response: value
142

----------
Where a name gives a salt, the structure may show the parent alone.
Endpoint: IC50. System: PKA (Homo sapiens). Items follow.
A number alone suffices; assume nM.

Any idea what IC50 came out for `CC1(C)O[C@@H]2C[C@H]3[C@@H]4C[C@H](F)C5=CC(=O)C=C[C@]5(C)[C@@]4(F)[C@@H](O)C[C@]3(C)[C@]2(C(=O)COC(=O)CCC(=O)OCc2ccc([C@@H](CN)C(=O)Nc3ccc4cnccc4c3)cc2)O1` on PKA (Homo sapiens)?
71

// fetch PKA (Homo sapiens) IC50 for C[C@@H]1C[C@H]2[C@@H]3CCC4=CC(=O)C=C[C@]4(C)[C@@]3(F)[C@@H](O)C[C@]2(C)[C@@]1(O)C(=O)COC(=O)c1ccc(C(=O)OCc2ccc([C@@H](CN)C(=O)Nc3ccc4cnccc4c3)cc2)cc1 [Example 66, dihydrochloride]
117

Under PKA (Homo sapiens): IC50 value of C[C@@H]1C[C@H]2[C@@H]3CCC4=CC(=O)C=C[C@]4(C)[C@@]3(F)[C@@H](O)C[C@]2(C)[C@@]1(O)C(=O)COC(=O)C1CC1C(=O)OCc1ccc([C@@H](CN)C(=O)Nc2ccc3cnccc3c2)cc1 (some centres unmarked) ?
317

Missing value: IC50, PKA (Homo sapiens), entry C[C@]12C=CC(=O)C=C1CC[C@@H]1[C@@H]2[C@@H](O)C[C@@]2(C)[C@H]1CC[C@]2(O)C(=O)COC(=O)C1CC1C(=O)OCc1ccc([C@@H](CN)C(=O)Nc2ccc3cnccc3c2)cc1 (some centres unmarked) . Fill in?
332

Could you share what IC50 was measured for `CC1(C)O[C@@H]2C[C@H]3[C@@H]4CCC5=CC(=O)C=C[C@]5(C)[C@@]4(F)[C@@H](O)C[C@]3(C)[C@]2(C(=O)COC(=O)CCC(=O)OCc2ccc([C@@H](CN)C(=O)Nc3ccc4cnccc4c3)cc2)O1` , tested on PKA (Homo sapiens)?
81

----------
- experimental.target: PKCh (Homo sapiens (Human))
- test.details: Kinase assay PKCh
- Format: biochemical
- condition.context: HCl salt
Give pIC50 for every item shown.
Please keep in mind that pIC50 is minus log10 of the molar concentration; only the number is needed.

# query: pIC50 of entry `C[C@@H]1C[C@H]2[C@@H]3CCC4=CC(=O)C=C[C@]4(C)[C@@]3(F)[C@@H](O)C[C@]2(C)[C@@]1(O)C(=O)COC(=O)CCC(=O)OCc1ccc([C@@H](CN)C(=O)Nc2ccc3cnccc3c2)cc1`
6.76

Requested read-out: pIC50. Entry: C[C@]12C=CC(=O)C=C1CC[C@@H]1[C@@H]2[C@@H](O)C[C@@]2(C)[C@H]1CC[C@]2(O)C(=O)COC(=O)C1CC1C(=O)OCc1ccc([C@@H](CN)C(=O)Nc2ccc3cnccc3c2)cc1 (some centres unmarked)
6.36

----------
Structures can show the parent of a compound that is named as a salt.
IKKb (Homo sapiens (Human), UniProt O14920): recorded pIC50 for assorted compounds
Sequence (O14920 whole entry, species assumed): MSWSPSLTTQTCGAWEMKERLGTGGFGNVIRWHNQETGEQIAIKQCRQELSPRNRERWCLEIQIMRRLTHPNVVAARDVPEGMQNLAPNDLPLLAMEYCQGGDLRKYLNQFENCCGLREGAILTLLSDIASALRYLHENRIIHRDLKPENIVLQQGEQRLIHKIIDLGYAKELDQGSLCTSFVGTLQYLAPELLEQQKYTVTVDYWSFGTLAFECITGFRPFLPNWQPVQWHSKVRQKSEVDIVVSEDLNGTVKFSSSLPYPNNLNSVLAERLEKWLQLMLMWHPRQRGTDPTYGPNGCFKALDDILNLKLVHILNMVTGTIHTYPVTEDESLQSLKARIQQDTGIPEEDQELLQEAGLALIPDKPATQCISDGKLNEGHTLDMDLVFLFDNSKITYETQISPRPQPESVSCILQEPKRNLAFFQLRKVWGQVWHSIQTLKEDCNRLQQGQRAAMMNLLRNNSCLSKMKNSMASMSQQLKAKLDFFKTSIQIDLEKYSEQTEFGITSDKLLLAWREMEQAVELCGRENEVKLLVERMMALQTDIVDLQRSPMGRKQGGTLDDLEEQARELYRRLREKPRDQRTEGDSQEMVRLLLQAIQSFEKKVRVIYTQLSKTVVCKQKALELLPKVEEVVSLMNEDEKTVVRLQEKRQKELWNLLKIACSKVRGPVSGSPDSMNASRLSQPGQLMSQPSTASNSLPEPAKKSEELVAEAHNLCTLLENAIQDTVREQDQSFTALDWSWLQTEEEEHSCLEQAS
By convention, pIC50 is the negative base-10 log of a molar concentration.

Test system IKKb (Homo sapiens (Human), UniProt O14920); read-out pIC50; what value for C[C@@H]1C[C@H]2[C@@H]3CCC4=CC(=O)C=C[C@]4(C)[C@@]3(F)[C@@H](O)C[C@]2(C)[C@@]1(O)C(=O)COC(=O)CCC(=O)OCc1ccc([C@@H](CN)C(=O)Nc2ccc3cnccc3c2)cc1 [Example 25] ?
4.41

Report pIC50 for C[C@@H]1C[C@H]2[C@@H]3CCC4=CC(=O)C=C[C@]4(C)[C@@]3(F)[C@@H](O)C[C@]2(C)[C@@]1(O)C(=O)COC(=O)c1ccc(C(=O)OCc2ccc([C@@H](CN)C(=O)Nc3ccc4cnccc4c3)cc2)cc1 [Example 66, dihydrochloride] tested on IKKb (Homo sapiens (Human), UniProt O14920).
4.30

What value of pIC50 on IKKb (Homo sapiens (Human), UniProt O14920) does C[C@@H]1C[C@H]2[C@@H]3CCC4=CC(=O)C=C[C@]4(C)[C@@]3(F)[C@@H](O)C[C@]2(C)[C@@]1(O)C(=O)COC(=O)C[C@H](N)C(=O)OCc1ccc([C@@H](CN)C(=O)Nc2ccc3cnccc3c2)cc1 [Example 83, trihydrochloride] have?
4.72

----------
- System: NFkB
- test.details: NFkB assay
- Format: cell-based
- condition.context: HCl salt
Where a name gives a salt, the structure may show the parent alone.
Decide using IC50 alone. Strictly below 60 nM: 1.0. Equal to or above 60 nM: 0.0.

# check: IC50 < 60 nM for CC1(C)O[C@@H]2C[C@H]3[C@@H]4C[C@H](F)C5=CC(=O)C=C[C@]5(C)[C@@]4(F)[C@@H](O)C[C@]3(C)[C@]2(C(=O)COC(=O)CCC(=O)OCc2ccc([C@@H](CN)C(=O)Nc3ccc4cnccc4c3)cc2)O1 [Example 40]
1.0

Identify whether the molecule C[C@@H]1C[C@H]2[C@@H]3CCC4=CC(=O)C=C[C@]4(C)[C@@]3(F)[C@@H](O)C[C@]2(C)[C@@]1(O)C(=O)COC(=O)C[C@H](N)C(=O)OCc1ccc([C@@H](CN)C(=O)Nc2ccc3cnccc3c2)cc1 [Example 83, trihydrochloride] records IC50 below 60 nM.
1.0

Answer whether the molecule C[C@]12C=CC(=O)C=C1CC[C@@H]1[C@@H]2[C@@H](O)C[C@@]2(C)[C@H]1CC[C@]2(O)C(=O)COC(=O)C1CC1C(=O)OCc1ccc([C@@H](CN)C(=O)Nc2ccc3cnccc3c2)cc1 (some centres unmarked) [Example 19] has IC50 strictly less than 60 nM
0.0

Lab note: confirm whether the reported IC50 for this molecule is below 60 nM, equality not counting. molecule: C[C@@H]1C[C@H]2[C@@H]3CCC4=CC(=O)C=C[C@]4(C)[C@@]3(F)[C@@H](O)C[C@]2(C)[C@@]1(O)C(=O)COC(=O)C1CC1C(=O)OCc1ccc([C@@H](CN)C(=O)Nc2ccc3cnccc3c2)cc1 (some centres unmarked) [Example 27]
0.0

Could you please tell me whether IC50 recorded for CC1(C)O[C@@H]2C[C@H]3[C@@H]4CCC5=CC(=O)C=C[C@]5(C)[C@@]4(F)[C@@H](O)C[C@]3(C)[C@]2(C(=O)COC(=O)CCC(=O)OCc2ccc([C@@H](CN)C(=O)Nc3ccc4cnccc4c3)cc2)O1 [Example 33] is less than 60 nM?
0.0

----------
Exercise: for every item that follows, state its recorded IC50.
- Test system: NFkB
- test.details: NFkB assay
- Format: cell-based
- condition.context: HCl salt
Counter-ions that a name gives are not always drawn.
Give the number; nM is assumed, so skip it.

Consider the molecule shown here: `C[C@@H]1C[C@H]2[C@@H]3CCC4=CC(=O)C=C[C@]4(C)[C@@]3(F)[C@@H](O)C[C@]2(C)[C@@]1(O)C(=O)COC(=O)CCC(=O)OCc1ccc([C@@H](CN)C(=O)Nc2ccc3cnccc3c2)cc1` What is its recorded IC50?
39

Quick check: IC50 of C[C@@H]1C[C@H]2[C@@H]3CCC4=CC(=O)C=C[C@]4(C)[C@@]3(F)[C@@H](O)C[C@]2(C)[C@@]1(O)C(=O)COC(=O)c1ccc(C(=O)OCc2ccc([C@@H](CN)C(=O)Nc3ccc4cnccc4c3)cc2)cc1 [Example 66, dihydrochloride] ?
55

----------
Counter-ions that a name gives are not always drawn.
experimental.readout: IC50 (µM)
Use µM as the unit, but write only the number.

Identify the measured IC50 of `CC1(C)O[C@@H]2C[C@H]3[C@@H]4CCC5=CC(=O)C=C[C@]5(C)[C@@]4(F)[C@@H](O)C[C@]3(C)[C@]2(C(=O)COC(=O)CCC(=O)OCc2ccc([C@@H](CN)C(=O)Nc3ccc4cnccc4c3)cc2)O1` for PKCh (Homo sapiens (Human), UniProt P24723).
0.145

Query the reported IC50 for PKCh (Homo sapiens (Human), UniProt P24723); item: C[C@@H]1C[C@H]2[C@@H]3CCC4=CC(=O)C=C[C@]4(C)[C@@]3(F)[C@@H](O)C[C@]2(C)[C@@]1(O)C(=O)COC(=O)c1ccc(C(=O)OCc2ccc([C@@H](CN)C(=O)Nc3ccc4cnccc4c3)cc2)cc1 [Example 66, dihydrochloride]
0.282

Write down the reported IC50 of C[C@@H]1C[C@H]2[C@@H]3CCC4=CC(=O)C=C[C@]4(C)[C@@]3(F)[C@@H](O)C[C@]2(C)[C@@]1(O)C(=O)COC(=O)C[C@H](N)C(=O)OCc1ccc([C@@H](CN)C(=O)Nc2ccc3cnccc3c2)cc1 [Example 83, trihydrochloride] , test system: PKCh (Homo sapiens (Human), UniProt P24723).
Sequence (P24723 whole entry): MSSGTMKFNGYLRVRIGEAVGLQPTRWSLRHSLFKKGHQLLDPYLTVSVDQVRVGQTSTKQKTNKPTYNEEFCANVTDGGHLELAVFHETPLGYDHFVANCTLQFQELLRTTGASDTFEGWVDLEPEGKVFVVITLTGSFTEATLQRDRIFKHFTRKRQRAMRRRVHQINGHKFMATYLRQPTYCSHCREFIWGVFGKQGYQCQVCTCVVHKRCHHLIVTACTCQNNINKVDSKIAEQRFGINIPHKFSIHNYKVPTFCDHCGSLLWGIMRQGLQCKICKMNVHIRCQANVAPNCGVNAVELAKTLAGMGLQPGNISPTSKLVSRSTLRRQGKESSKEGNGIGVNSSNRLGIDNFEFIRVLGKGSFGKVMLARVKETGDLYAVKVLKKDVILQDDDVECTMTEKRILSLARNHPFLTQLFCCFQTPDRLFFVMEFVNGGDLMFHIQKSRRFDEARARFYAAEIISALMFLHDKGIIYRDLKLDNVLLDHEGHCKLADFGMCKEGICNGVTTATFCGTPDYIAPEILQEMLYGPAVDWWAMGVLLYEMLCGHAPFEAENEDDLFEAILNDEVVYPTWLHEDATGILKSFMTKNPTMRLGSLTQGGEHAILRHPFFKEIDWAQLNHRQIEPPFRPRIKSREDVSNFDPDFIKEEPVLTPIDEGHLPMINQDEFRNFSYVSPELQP
0.051

Which measured IC50 belongs to `CC1(C)O[C@@H]2C[C@H]3[C@@H]4C[C@H](F)C5=CC(=O)C=C[C@]5(C)[C@@]4(F)[C@@H](O)C[C@]3(C)[C@]2(C(=O)COC(=O)CCC(=O)OCc2ccc([C@@H](CN)C(=O)Nc3ccc4cnccc4c3)cc2)O1` , tested on PKCh (Homo sapiens (Human), UniProt P24723)?
0.19

Form entry - test system: PKCh (Homo sapiens (Human), UniProt P24723); read-out: IC50; molecule: C[C@@H]1C[C@H]2[C@@H]3CCC4=CC(=O)C=C[C@]4(C)[C@@]3(F)[C@@H](O)C[C@]2(C)[C@@]1(O)C(=O)COC(=O)C1CC1C(=O)OCc1ccc([C@@H](CN)C(=O)Nc2ccc3cnccc3c2)cc1 (some centres unmarked)
0.331
